biological target: CyclinE1/CDK2 (Homo sapiens, UniProt P24864); construct: purchased Eurofins, discovery 14-475; assay: Fluorescence Polarization (FP) competitive binding assay, Cyclin E1/Cdk2; conditions: 10 nM Cyclin E1/Cdk2, 2 nM FAM probe; average of 2-3 independent experiments; read-out: Cyclin E FP IC50;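 note: readings taken after two-hour equilibration at room temperature in HEPES buffer with NaCl, DTT, NP-40 and BSA, IC50 fitted from eight-concentration serial dilution series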
*1 amine or outer side, *2 acyl side, *3 side chain or, on linkers, in order; H or OH if unused. Where a SMILES comes first, the peptide text is derived from it. Bridges are numbered along the chain shown (N, C = ends). [ ]: non-standard residue; d: D form. The star is where a group is joined. X14 = Cc1nc(C)c(-c2ccc(Cl)cc2C[C@@H](C(=O)[*:2])N(C)[*:1])s1; NMehhhLys(Me) = CN([C@@H](CCCCCCCN(C)[*:3])C(=O)[*:2])[*:1]; X5 = CN([C@@H](Cc1cc(Cl)ccc1-c1cnn2c1OCCC2)C(=O)[*:2])[*:1]; cBuCO(3,3-F2-1-CF3) = O=C(C1(C(F)(F)F)CC(F)(F)C1)*; Pro(trans-4-F) = O=C(O)[C@@H]1C[C@@H](F)CN1; Gly(cPr) = N[C@H](C(=O)O)C1CC1
quantity: IC50 (nM)
// return numeric value only (unit: nM, not printed)

### Prompt Hello, please tell me recorded IC50 for this one: CC(C)C[C@@H]1NC(=O)[C@@H](N(C)C(=O)[C@@H](NC(=O)[C@@H]2C[C@@H](F)CN2C(=O)C2(C(F)(F)F)CC(F)(F)C2)C2CC2)CCCCCCCN(C)C(=O)[C@H](Cc2cc(Cl)ccc2-c2cnn3c2OCCC3)N(C)C1=O [Example 191] ({cBuCO(3,3-F2-1-CF3)}-[Pro(trans-4-F)][Gly(cPr)][NMehhhLys(Me)]L[X5]; lactam 3-C)
### Response 260

### Prompt Hello, please tell me recorded IC50 for this one: Cc1nc(C)c(-c2ccc(Cl)cc2C[C@H]2C(=O)N(C)CCCCCCC[C@H](N(C)C(=O)[C@@H](NC(=O)[C@@H]3C[C@@H](F)CN3C(=O)C3(C(F)(F)F)CC(F)(F)C3)C3CC3)C(=O)N[C@@H](CC(C)C)C(=O)N2C)s1 [Example 207] ({cBuCO(3,3-F2-1-CF3)}-[Pro(trans-4-F)][Gly(cPr)][NMehhhLys(Me)]L[X14]; lactam 3-C)
### Response 2730
